Item-by-item account of cell viability
system: NOMO1; experiment: cell viability relative to DMSO control; higher = less cytotoxic; conditions: HPLM + 10% dialyzed FBS; 48 h; 46.1 µM

Solved entries:
| SMILES DATA | TEST RESULT |
| --- | --- |
| CC(=O)N1CCN(c2ccc(OCc3nn(C)c(C)c3-c3cccc4c(CCCOc5cc(C)c(Cl)c(C)c5)c(C(=O)O)n(Cc5cccnc5)c34)cc2)CC1 | 84.6% |
| Cc1nc(Nc2ncc(C(=O)Nc3c(C)cccc3Cl)s2)cc(N2CCN(CCO)CC2)n1 | 71.9% |
| Fc1ccc(C(c2ccc(F)cc2)N2CCN(C/C=C/c3ccccc3)CC2)cc1 | 95.9% |

Next compound, please.
Given the compound "C[C@@H](c1ncncc1F)[C@](O)(Cn1cncn1)c1ccc(F)cc1F" , what is its reported cell viability?
93.3%

---

Item-by-item account of cell viability
test system: SEM cells; test: cell viability relative to DMSO control; higher = less cytotoxic; conditions: HPLM + 10% dialyzed FBS; 48 h; 46.1 µM
Give your result in % as a bare value.

| COMPOUND | UNIT ABBREVIATION | cell viability |
| --- | --- | --- |
| CCCCN(CCCC)CCC(O)c1cc2c(Cl)cc(Cl)cc2c2cc(C(F)(F)F)ccc12 (stereo not drawn) | % | 109 |
| O=C(Cc1cccc(OC(F)(F)F)c1)Nc1ccc(CCCCc2nnc(NC(=O)Cc3ccccn3)s2)nn1 | % | 65.1 |
| C[C@H]1CN(C[C@@H](C)O1)CC(=O)NC2=CC=C3SC4=C(CC3=C2)C=CC=C4\C5=C\C(=O)\C=C(/O5)N6CCOCC6 | % | 39.8 |
| COC(=O)N1CCN(Cc2cccc(NC(=O)Nc3ccc(C)nc3)c2F)CC1 | % | 73.7 |
| COc1cc2c(N3CCN(C(=O)Nc4ccc(OC(C)C)cc4)CC3)ncnc2cc1OCCCN1CCCCC1 | % | 15.1 |

Recorded cell viability for "CO/N=C(/C(=O)N[C@@H]1C(=O)N2C(C(=O)O)=C(Cn3ccc(=N)n3CCO)CS[C@H]12)c1csc(N)n1" with SEM cells, please?
127

Recorded cell viability for "CC[C@H]1OC(=O)[C@H](C)[C@@H](O[C@H]2C[C@@](C)(OC)[C@@H](O)[C@H](C)O2)[C@H](C)[C@@H](O[C@@H]2O[C@@H](C)C[C@H](N(C)C)[C@H]2O)[C@](C)(O)C[C@@H](C)C(=O)[C@H](C)[C@@H](O)[C@]1(C)O" with SEM cells, please?
32.2

Recorded cell viability for "Cc1nc(Nc2ncc(C(=O)Nc3c(C)cccc3Cl)s2)cc(N2CCN(CCO)CC2)n1" with SEM cells, please?
29.9

---

system: NOMO1; test: cell viability relative to DMSO control; higher = less cytotoxic; conditions: HPLM + 10% dialyzed FBS; 48 h; 1.71 µM
RECORDED METRIC: cell viability (%)
Give your result in % as a bare value.

Solved entries:
| SMILES DATA | TGT | cell viability, % |
| --- | --- | --- |
| Cc1cc(O)c2c3c4c(cc(O)c13)C(C)(C)C(=O)c1c(O)cc(O)c(c1-4)C2=O | NOMO1 | 99.2 |
| C[C@@H]1CC[C@@]2(OC1)O[C@H]3C[C@H]4[C@@H]5C/C=C6/C[C@H](CC[C@]6(C)[C@H]5CC[C@]4(C)[C@H]3[C@@H]2C)O[C@@H]7O[C@H](CO)[C@@H](O[C@@H]8O[C@@H](C)[C@H](O)[C@@H](O)[C@H]8O)[C@H](O)[C@H]7O[C@@H]9O[C@@H](C)[C@H](O)[C@@H](O)[C@H]9O | NOMO1 | 152 |
| Nc1nc(-c2nn(Cc3ccccc3F)c3ncccc23)nc(N)c1N1CCOCC1 | NOMO1 | 122 |
| Cc1[nH]c(/C=C2\C(=O)Nc3ccc([S+](=O)([O-])N(C)c4cccc(Cl)c4)cc32)c(C)c1C(=O)N1CCN(C)CC1 | NOMO1 | 120 |
| N[C@@H](C(=O)N[C@H]1[C@H]2SC\C(=C(/N2C1=O)C(O)=O)Cl)C3=CC=CC=C3 | NOMO1 | 108 |

Next compound, please.
Given the compound "CCC[C@@H]1C[C@@H](C(=O)N[C@@H]([C@H]2O[C@H](SC)[C@H](O)[C@@H](O)[C@H]2O)[C@@H](C)O)N(C)C1.Cl" , what is its reported cell viability?
100
